FYI, the data here is from ChEMBL document CHEMBL4483862.

System: Plasmodium berghei
measurementProtocol: Luciferase/luciferin-expressing antifolate-resistant parasites were used to infect a culture of HepG2 cells that were pre-incubated with compounds. Infected hepatocytes emit light due to the luciferase reaction. Assay results are presented as the percent inhibition of light emission compared to control. […]
Type: functional
studyConditions: sporozoite, read-out: LUCIFERASE INFECTION ASSAY - IC90
Just a reminder that ties go to No: only IC90 strictly below 8 µM counts as Yes.

>  <lineNotation>
CCCCN(C(=O)CSc1nnc(-c2ccc(OC)cc2)n1C(C)C)c1c(N)n(CCCC)c(=O)[nH]c1=O

>  <labelClass>
No

$$$$
>  <lineNotation>
CCCCOc1ccc(/C=N/Nc2ccc([N+](=O)[O-])cc2)cc1

>  <labelClass>
No

$$$$
>  <lineNotation>
COc1ccc(-c2cnc3cnc(-c4cccc(NS(C)(=O)=O)c4)cn23)cn1

>  <labelClass>
Yes

$$$$
>  <lineNotation>
Cc1noc(C)c1CSc1nc(C(C)(C)C)nc2c1c(=O)n(C)c(=O)n2C

>  <labelClass>
No

$$$$
>  <lineNotation>
Cc1cc(C)c(N2C(=O)C=CC2=O)c(C)c1

>  <labelClass>
No

$$$$
>  <lineNotation>
C=CCNc1nc(C(=O)OCc2cc(=O)n3cc(Br)ccc3n2)cs1

>  <labelClass>
No

$$$$
>  <lineNotation>
Cc1ccccc1OCCCn1c(CCCNC(=O)c2ccco2)nc2ccccc21

>  <labelClass>
No

$$$$
>  <lineNotation>
COc1ccccc1NC(=O)c1ccc(NC(=O)Cn2ncc(Cl)c(Cl)c2=O)cc1

>  <labelClass>
Yes

$$$$

----------
Test system: Plasmodium berghei
measurementProtocol: Luciferase/luciferin-expressing antifolate-resistant parasites were used to infect a culture of HepG2 cells that were pre-incubated with compounds. Infected hepatocytes emit light due to the luciferase reaction. Assay results are presented as the percent inhibition of light emission compared to control. […]
Format: functional
studyConditions: sporozoite, read-out: LUCIFERASE INFECTION ASSAY - IC50
pIC50: −log10 of the molar value.
observable: pIC50

>  <compound>
Nc1c(C(=O)CN2CCN(C(c3ccc(F)cc3)c3ccc(F)cc3)CC2)c(=O)[nH]c(=O)n1Cc1ccccc1

>  <observable>
pIC50

>  <val>
< 5.00

$$$$
>  <compound>
Cc1nn(CC(=O)NCCCN2c3ccccc3Sc3ccccc32)c(C)c1[N+](=O)[O-]

>  <observable>
pIC50

>  <val>
< 5.00

$$$$
>  <compound>
CN(CC(=O)Nc1ccc(Cl)c(S(=O)(=O)N2CCOCC2)c1)C(=O)C1CCCO1 (centres undefined)

>  <observable>
pIC50

>  <val>
< 5.00

$$$$
>  <compound>
COC(=O)Cc1cc(=O)nc(SCC(=O)c2cc(C)n(-c3ccc(C(C)C)cc3)c2C)[nH]1

>  <observable>
pIC50

>  <val>
< 5.00

$$$$
>  <compound>
CCOC(=O)c1c(NC(=O)C[n+]2ccc(Cc3ccccc3)cc2)sc(C)c1C

>  <observable>
pIC50

>  <val>
5.42

$$$$
>  <compound>
O=C(Nc1ccc(CNC(=O)C2Cc3cc(Cl)ccc3O2)cc1)c1ccco1 (centres undefined)

>  <observable>
pIC50

>  <val>
< 5.00

$$$$
>  <compound>
CCc1ccc(C(=O)C(C)Sc2ccc(S(=O)(=O)N3CCOCC3)cn2)cc1 (centres undefined)

>  <observable>
pIC50

>  <val>
< 5.00

$$$$
>  <compound>
CCN(CC)S(=O)(=O)c1ccc(/C=C/C(=O)N2CC=C(c3ccccc3)CC2)cc1

>  <observable>
pIC50

>  <val>
< 5.00

$$$$
>  <compound>
CCCCn1nc(C(=O)NC(c2ccccc2)c2ccc(OC)cc2)c2ccccc2c1=O (centres undefined)

>  <observable>
pIC50

>  <val>
< 5.00

$$$$

----------
System: Plasmodium berghei
measurementProtocol: Luciferase/luciferin-expressing antifolate-resistant parasites were used to infect a culture of HepG2 cells that were pre-incubated with compounds. Infected hepatocytes emit light due to the luciferase reaction. Assay results are presented as the percent inhibition of light emission compared to control. […]
Format: functional
studyConditions: sporozoite, read-out: LUCIFERASE INFECTION ASSAY - IC90
# IC90 per entry

>  <molecule>
COC(=O)c1cccnc1Nc1ccc(NS(=O)(=O)c2ccc(F)c(F)c2)cc1

>  <IC90>
> 10 µM

$$$$
>  <molecule>
COc1cc(/C=C2\C(=O)c3ccccc3S(=O)(=O)N2C(C)C)ccc1O

>  <IC90>
2.85 µM

$$$$
>  <molecule>
Clc1ccc(-n2nnnc2Sc2ncnc3sc4c(c23)CCC4)cc1

>  <IC90>
> 10 µM

$$$$
>  <molecule>
O=C(NC1CC1)c1ccc(-c2cnc3cnc(-c4ccc(CNc5ccccc5)cc4)cn23)cc1

>  <IC90>
> 7.18 µM

$$$$
>  <molecule>
CCOC(=O)c1c(C)noc1/C(C)=N/Nc1cc(C(F)(F)F)cc(C(F)(F)F)c1

>  <IC90>
> 7.8 µM

$$$$
>  <molecule>
CCc1ccc(-n2c(SC3CCCCC3NS(=O)(=O)c3ccccc3)nc3ccccc3c2=O)cc1 (stereo not given)

>  <IC90>
4.14 µM

$$$$
>  <molecule>
COCCNC(=O)C1(C)CCCN(C(=O)c2ccc(OC)cc2OC)C1 (stereo not given)

>  <IC90>
> 9.06 µM

$$$$
>  <molecule>
Cc1nc2nc(C(F)(F)F)nn2c(C)c1CCC(=O)N1CCCC1c1ccc2c(c1)OCCCO2 (stereo not given)

>  <IC90>
8.93 µM

$$$$
>  <molecule>
Cc1cc(N2CCN(C)CC2)n2ncc(-c3ccccc3Cl)c2n1

>  <IC90>
> 9.65 µM

$$$$
>  <molecule>
Cn1c(CSCc2nc(-c3ccc(Cl)cc3)cs2)nnc1SCC(=O)Nc1ccc(Cl)cc1

>  <IC90>
> 6.15 µM

$$$$

----------
System: Plasmodium berghei
measurementProtocol: Luciferase/luciferin-expressing antifolate-resistant parasites were used to infect a culture of HepG2 cells that were pre-incubated with compounds. Infected hepatocytes emit light due to the luciferase reaction. Assay results are presented as the percent inhibition of light emission compared to control. […]
Type: functional
studyConditions: sporozoite, HEPG2TOX_HILL_SLOPE 10.4, HEPG2TOX_R_SQUARED 0.074, PBLUC_HILL_SLOPE 15.3, PBLUC_R_SQUARED 0.511, read-out: LUCIFERASE INFECTION ASSAY - IC50
pIC50: −log10 of the molar value.
observable: pIC50

>  <compound>
O=C(Nc1ccc(Cl)c(C(F)(F)F)c1)C(OC(=O)C12CC3CC(CC(C3)C1)C2)c1ccccc1 (stereo unspecified)

>  <val>
5.08

$$$$

----------
Test system: Plasmodium berghei
measurementProtocol: Luciferase/luciferin-expressing antifolate-resistant parasites were used to infect a culture of HepG2 cells that were pre-incubated with compounds. Infected hepatocytes emit light due to the luciferase reaction. Assay results are presented as the percent inhibition of light emission compared to control. […]
Assay type: functional
studyConditions: sporozoite, HEPG2TOX_HILL_SLOPE 12, HEPG2TOX_R_SQUARED 0.881, PBLUC_HILL_SLOPE 13.1, PBLUC_R_SQUARED 0.554, read-out: LUCIFERASE INFECTION ASSAY - IC50
pIC50: −log10 of the molar value.
observable: pIC50

>  <lineNotation>
CCNc1ccc(C(=O)Nc2ccc3nc(C)sc3c2)cc1[N+](=O)[O-]

>  <val>
5.05

$$$$

----------
Test system: Plasmodium berghei
measurementProtocol: Luciferase/luciferin-expressing antifolate-resistant parasites were used to infect a culture of HepG2 cells that were pre-incubated with compounds. Infected hepatocytes emit light due to the luciferase reaction. Assay results are presented as the percent inhibition of light emission compared to control. […]
Format: functional
studyConditions: sporozoite, FFLUC_HILL_SLOPE 1.64, FFLUC_R_SQUARED 0.277, read-out: LUCIFERASE INFECTION ASSAY - IC50
pIC50: −log10 of the molar value.

>  <lineNotation>
Cn1c(-c2c(-c3ccccc3)n[nH]c2-c2ccccc2O)nc2ccccc21

>  <pIC50>
< 5.00

$$$$

----------
System: Plasmodium berghei
measurementProtocol: Luciferase/luciferin-expressing antifolate-resistant parasites were used to infect a culture of HepG2 cells that were pre-incubated with compounds. Infected hepatocytes emit light due to the luciferase reaction. Assay results are presented as the percent inhibition of light emission compared to control. […]
Assay type: functional
studyConditions: sporozoite, HEPG2TOX_HILL_SLOPE 9.26, HEPG2TOX_R_SQUARED 0.159, PBLUC_HILL_SLOPE 2.15, PBLUC_R_SQUARED 0.0523, read-out: LUCIFERASE INFECTION ASSAY - IC50
pIC50: −log10 of the molar value.
observable: pIC50

>  <lineNotation>
CN(C)CCCOc1ccc(-c2nnc3ccc(-c4cccc(Cl)c4)cn23)cc1

>  <val>
5.10

$$$$
